Target: Kinesin-like protein KIF18A [1-467] (Human, UniProt Q8NI77)
Sequence (Q8NI77 whole entry): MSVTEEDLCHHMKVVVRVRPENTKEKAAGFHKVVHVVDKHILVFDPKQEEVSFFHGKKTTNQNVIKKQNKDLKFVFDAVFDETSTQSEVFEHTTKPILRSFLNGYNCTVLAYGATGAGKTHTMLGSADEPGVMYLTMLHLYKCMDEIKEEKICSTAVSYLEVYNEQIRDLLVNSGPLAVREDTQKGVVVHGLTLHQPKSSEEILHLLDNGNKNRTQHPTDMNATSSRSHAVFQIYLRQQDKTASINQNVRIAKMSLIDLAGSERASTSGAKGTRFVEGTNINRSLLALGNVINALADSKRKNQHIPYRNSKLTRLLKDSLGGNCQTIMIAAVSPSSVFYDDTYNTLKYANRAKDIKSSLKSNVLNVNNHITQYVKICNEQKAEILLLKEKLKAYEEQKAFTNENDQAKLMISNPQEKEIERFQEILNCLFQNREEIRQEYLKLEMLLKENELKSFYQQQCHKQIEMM
TEST_READOUT: IC50 (nM)

[I] Cc1cc(-c2nnc(-c3ccc(NS(=O)(=O)CCO)cc3N3CCC4(CC3)CC4)o2)c(F)c(N2CCC(F)(F)CC2)n1 [US20250250264, Compound I-53]
[II] Cc1cc(-c2nnc(-c3ccc(NS(=O)(=O)CCO)cc3N3CCC4(CC3)CC4)s2)nc(OCCC(F)(F)F)n1 [US20250250264, Compound I-99]
When I and II are compared, which has the higher number for IC50? Your answer should be the label of the entry you select.
I
